tested on: ATP; test: switch fluorescence ratio, 500 uM ATP over buffer (Cy3 cluster intensity, sum of 5 cycles each) (fold (ratio)); higher = stronger signal-on switching upon ATP binding; sequences stand for … in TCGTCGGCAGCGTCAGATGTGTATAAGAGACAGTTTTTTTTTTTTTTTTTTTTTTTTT…TC; details: aptamer strand: ATP DNA aptamer (quencher-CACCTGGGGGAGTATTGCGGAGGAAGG + anchor), 100 nM annealed; ATP concentration: 500 uM;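 further: ATP exposure 15 min at 22 °C before imaging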
List of switch fluorescence ratio values.
Quick one: just the number, no unit, thanks!

Answered cases to consult:
sequence_entry: GGGGAGTCGG
switch fluorescence ratio: 1.01
--
sequence_entry: TTATATGTTG
switch fluorescence ratio: 1.02
--
sequence_entry: ACAGGGGTTA
switch fluorescence ratio: 1.25
--
sequence_entry: TCATAGGTTT
switch fluorescence ratio: 0.974
--
sequence_entry: CGCTACGTGT
switch fluorescence ratio: 1.02

Requested read-out: switch fluorescence ratio. Entry: GGGGTCAGCG 0.974

Requested read-out: switch fluorescence ratio. Entry: TCTAAGTCCA 0.989

Requested read-out: switch fluorescence ratio. Entry: GGGGTTCAGA 0.985

Requested read-out: switch fluorescence ratio. Entry: TGCCCGGTTT 1.01

Requested read-out: switch fluorescence ratio. Entry: GGTTTATCAG 0.983

Requested read-out: switch fluorescence ratio. Entry: TTTAGGTAGT 0.975

Data provenance: the supplement of paper PMC10126150
